# target_of_assay: LMTK3 kinase domain (Homo sapiens, UniProt Q96Q04)
# Construct: GST (N); made in house; host or cells: insect cells
# Sequence (Q96Q04 133-415): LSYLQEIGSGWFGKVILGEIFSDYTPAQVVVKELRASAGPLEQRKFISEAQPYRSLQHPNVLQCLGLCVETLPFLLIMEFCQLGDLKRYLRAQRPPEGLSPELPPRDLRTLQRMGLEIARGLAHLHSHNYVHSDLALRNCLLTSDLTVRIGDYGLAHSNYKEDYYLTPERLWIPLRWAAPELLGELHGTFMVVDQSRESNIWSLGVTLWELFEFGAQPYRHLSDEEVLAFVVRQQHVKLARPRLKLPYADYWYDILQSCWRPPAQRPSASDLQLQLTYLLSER
# method_description: LMTK3 inhibitor screening assay (CisBio KinEASE STK S1 kit, ratiometric fluorescent read-out)
# Type: biochemical
# cond: 10 nM LMTK3, 1 μM S1 peptide, ATP 10 μM
quantity_kind: Average % Inhibition

# annotated cases, reported Average % Inhibition shown
1. CCCCCCOC(=O)[C@]1(O)C[C@@H]2O[C@@]1(C)n1c3ccccc3c3c4c(c5c6ccccc6n2c5c31)C(=O)NC4 | 98.65%
2. CN(C)CCCn1cc(C2=C(c3c[nH]c4ccccc34)C(=O)NC2=O)c2ccccc21 [GF109203X] | 107.89%
3. COC(=O)[C@@]1(O)C[C@H]2O[C@]1(C)n1c3ccccc3c3c4c(c5c6ccccc6n2c5c31)C(=O)NC4 [K-252a] | 98.91%

What does the record list as Average % Inhibition for CN[C@@H]1C[C@H]2O[C@@](C)([C@@H]1OC)n1c3ccccc3c3c4c(c5c6ccccc6n2c5c31)C(=O)NC4 ?
108.86%

----------
# target_of_assay: LMTK3 kinase domain (Homo sapiens)
# Construct: GST (N); made in house; host or cells: insect cells
# method_description: LMTK3 inhibitor screening assay (CisBio KinEASE STK S1 kit, ratiometric fluorescent read-out)
# Assay type: biochemical
Provide the recorded IC50 for the entries that follow.
Answers are plain numbers, in nM.

1. CN[C@@H]1C[C@H]2O[C@@](C)([C@@H]1OC)n1c3ccccc3c3c4c(c5c6ccccc6n2c5c31)C(=O)NC4 [Staurosporine] | 0.0024

What does the record list as IC50 for COC(=O)[C@@]1(O)C[C@H]2O[C@]1(C)n1c3ccccc3c3c4c(c5c6ccccc6n2c5c31)C(=O)NC4 [K-252a] ?
79.4
